# Target or test system: human RET on cells (MCF7/SRE-Luc; HEK293/hGFRα3/hRET/SRE-Luc; HEK293/hGFRα1/hRET/SRE-Luc) (human), P07949
# Measurement notes: cell-based or functional assay
Value type: MCF7/SRE-Luc % Activation

H4H8067P (antibody, human IgG4, V domains shown) VH: QVQLVESGGGVVQPGRSLRLSCVASGFTFSNYGMHWVRQAPGKGLEWVALIWYDGSNKYFADSVKGRFTISRDNSKRMMFLEMNSLRAEDTAIYYCTRDRLFDFWGQGTLVTVSS VL: AIQMTQSPSSLSASVGDRVSITCRASQDIRHDLGWFHQKPGKAPKLLIYAASTLQSGVPSRFGGSGSGTDFTLTITSLQPEDFGTYYCLQDYNYPATFGQGTRLEIK | 0%

Now consider a different binder.
// returns reported MCF7/SRE-Luc % Activation for input H4H8084P (antibody, human IgG4, V domains shown) VH: QVQLVESGGGVVQPGRSLRLSCEASGFTFRNYGMHWVRQAPGKGLDWVSTIYYDGSDEYYSDSVKGRFTISRDNSKNTLYLQMNSLRAEDTAVYYCARDPPSFRYFDYWGQGTLVTVSS VL: DIQMTQSPSTLSASVGDRVTITCRASQSIRSWLTWYQQKPGKAPKVLIYKASTLERGVPSRFSGSGSGTEFTLTISSLQPEDFATYYCHQYSSYSYTFGQGTKLEIK
0%
